Molecular target: T1, biotin-peptide IPNMADDYGS (human)
T1 peptide: Biotin-IPNMADDYGS
Assay: ELISA biotin-peptide; scFv 10 ug/mL; repII
Experimental: The peptides were synthesized naked or with a N-terminal Biotin modification with a purity of >98%. All four scFvs were verified by ELISA that can be detected with anti-His antibodies. ELISA was performed for scFv-peptide binding validation. Briefly, naked peptides were coated (50 μg/mL) in 0.58M carbonate-bicarbonate buffer pH9.5, 100 μL/well, 4° C. […]
Where no end group is shown, it is not given here. The star is where a group is joined. Biotin = O=C1N[C@H]2[C@H](CS[C@H]2CCCCC(=O)*)N1
reported.metric: OD450 (OD)
Answer format: numeric, OD implied, no suffix.

Study these solved cases before continuing.
* Comparative antibody 1 (Comp-1) scFv, SEQ ID NO: 10 from WO2023/037125 A1, His-tagged (scFv) scFv: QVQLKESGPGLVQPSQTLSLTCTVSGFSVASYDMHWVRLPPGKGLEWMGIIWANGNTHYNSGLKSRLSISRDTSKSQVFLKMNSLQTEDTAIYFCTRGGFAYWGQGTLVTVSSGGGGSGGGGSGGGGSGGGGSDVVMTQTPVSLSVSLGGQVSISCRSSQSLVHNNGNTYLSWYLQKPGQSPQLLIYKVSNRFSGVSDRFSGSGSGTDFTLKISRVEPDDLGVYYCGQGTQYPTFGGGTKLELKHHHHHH | 0.14
* CCR9_HUM2 scFv (humanized anti-CCR9 scFv, SEQ ID NO: 17 with C-terminal 6xHis tag) (scFv) scFv: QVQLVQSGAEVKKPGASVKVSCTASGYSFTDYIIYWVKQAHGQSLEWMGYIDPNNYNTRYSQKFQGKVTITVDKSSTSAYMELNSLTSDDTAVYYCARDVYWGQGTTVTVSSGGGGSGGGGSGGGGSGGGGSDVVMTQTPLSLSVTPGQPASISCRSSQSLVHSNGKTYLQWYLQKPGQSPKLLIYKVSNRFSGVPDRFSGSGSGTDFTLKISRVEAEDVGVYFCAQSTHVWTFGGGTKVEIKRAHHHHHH | 0.1
* Comparative antibody 2 (Comp-2) scFv, 243LO326 (VH SEQ ID NO: 51 and VL SEQ ID NO: 52 of WO 2022/195028 A2), His-tagged (scFv) scFv: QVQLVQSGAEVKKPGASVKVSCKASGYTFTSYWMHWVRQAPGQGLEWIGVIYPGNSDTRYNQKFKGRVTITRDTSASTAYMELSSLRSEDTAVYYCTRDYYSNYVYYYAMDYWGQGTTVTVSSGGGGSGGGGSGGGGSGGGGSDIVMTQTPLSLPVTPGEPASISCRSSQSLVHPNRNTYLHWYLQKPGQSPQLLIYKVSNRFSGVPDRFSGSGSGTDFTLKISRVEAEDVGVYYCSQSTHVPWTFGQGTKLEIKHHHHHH | 0.09

Query binder follows.
### Prompt Need OD450 of Comparative antibody 3 (Comp-3) scFv, SR_92R (Somovilla-Crespo et al. 2018), His-tagged (scFv) scFv: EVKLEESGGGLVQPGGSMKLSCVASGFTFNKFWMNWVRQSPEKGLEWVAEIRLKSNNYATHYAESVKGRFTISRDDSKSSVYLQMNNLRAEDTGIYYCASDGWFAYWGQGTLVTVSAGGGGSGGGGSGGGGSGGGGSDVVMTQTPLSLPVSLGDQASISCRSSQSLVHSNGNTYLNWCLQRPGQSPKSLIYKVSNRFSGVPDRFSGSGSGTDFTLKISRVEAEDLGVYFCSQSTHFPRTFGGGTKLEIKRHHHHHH , thanks.
### Response 1.47

Hello, the source for this data is patent US20260232732A1, in case you need it.
